// provenance: patent US20190152962A1

Target: full length human RORγt (Homo sapiens)
Construct: full length human RORγt together in COS-7 cells
Test: 5×RORE based luciferase assay
Conditions: COS-7 cells transfected with 5×RORE-Luc and hRORγt, 18-20 h treatment
Reported Metric: IC50
I'd appreciate it if you wrote the number followed by its unit.

Sample answers from the record:
CCS(=O)(=O)c1ccc(CC(=O)Nc2cc(F)c(C3(c4noc(-c5ccc(F)cc5)n4)CC3)c(F)c2)cc1 :: 5.8 nM
CCS(=O)(=O)c1ccc(CC(=O)Nc2cc(Cl)c(C3(c4ncc(-c5ccc(F)cc5)o4)CC3)c(Cl)c2)cc1 :: 1.5 nM

**Q:** Returns the measured IC50 for the input compound. Input: CCS(=O)(=O)c1ccc(CC(=O)Nc2cc(Cl)c(C3(c4ncc(-c5ccc(Cl)cc5)o4)CC3)c(Cl)c2)cc1
**A:** 22.5 nM

**Q:** Now this one: CCS(=O)(=O)c1ccc(CC(=O)Nc2cc(Cl)c(C3(c4noc(-c5ccc(Cl)cc5Cl)n4)CC3)c(Cl)c2)cc1
**A:** 5.9 nM

**Q:** # repeat for CCS(=O)(=O)c1ccc(CC(=O)Nc2cc(Cl)c(C3(c4noc(-c5ccc(F)c(Cl)c5)n4)CC3)c(Cl)c2)cc1
**A:** 6.8 nM

**Q:** Also, CCS(=O)(=O)c1ccc(CC(=O)Nc2cc(Cl)c(C3(c4noc(C5CC5)n4)CC3)c(Cl)c2)cc1 please.
**A:** 1.5 nM

**Q:** Please do the same for CCS(=O)(=O)c1ccc(CC(=O)Nc2cc(Cl)c(C3(c4noc(-c5ccc(F)c(F)c5)n4)CC3)c(Cl)c2)cc1 as well.
**A:** 5.6 nM

---

Listed compounds paired with reported IC50
System: secreted IL-17 in peripheral blood mononuclear cells (PBMCs)
Assay: Human IL-17 inhibition assay
Assay type: cell-based
Details: PBMC, anti-CD3/anti-CD28, 72 h, read-out: IL17 IC50
Kindly answer with a numeric value in nM, unit omitted.

Illustrative cases are given below, each with its answer.
O=C(Cc1ccc(S(=O)(=O)NC2CC2)cc1)Nc1cc(Cl)c(C2(c3noc(-c4ccc(F)cc4)n3)CC2)c(Cl)c1 :: 18
CCS(=O)(=O)c1ccc(CC(=O)Nc2cc(Cl)c(C3(c4noc(C5CC5)n4)CC3)c(Cl)c2)cc1 :: 14

**Q:** // returns reported IC50 for input CCS(=O)(=O)c1ccc(CC(=O)Nc2cc(Cl)c(C3(c4noc(-c5ccc(Cl)c(Cl)c5)n4)CC3)c(Cl)c2)cn1
**A:** 32

**Q:** Next compound up: CCS(=O)(=O)c1ccc(CC(=O)Nc2cc(Cl)c(C3(c4noc(-c5ccc(F)cc5)n4)CC3)c(Cl)c2)cc1
**A:** 6.6

**Q:** Please give the result for CCS(=O)(=O)c1ccc(CC(=O)Nc2cc(Cl)c(C3(c4nc(-c5ccc(F)cc5)no4)CC3)c(Cl)c2)cc1 too.
**A:** 12

**Q:** Also CCS(=O)(=O)c1ccc(CC(=O)Nc2cc(Cl)c(C3(c4noc(-c5ccc(F)c(F)c5)n4)CC3)c(Cl)c2)cn1 , if possible.
**A:** 42.7

**Q:** Likewise for CCS(=O)(=O)c1ccc(CC(=O)Nc2cc(Cl)c(C3(c4noc(-c5ccc(Cl)c(Cl)c5)n4)CC3)c(Cl)c2)cc1 ?
**A:** 14.7

---

Test system: secreted IL-17 in peripheral blood mononuclear cells (PBMCs)
Assay: Human IL-17 inhibition assay
Type: cell-based
Details: PBMC, anti-CD3/anti-CD28, 72 h, read-out: IL17 IC50
Binary label based on IC50 with cut-off 20 nM: below gives 1, not below gives -1.

Here are 5 compounds together with their reported answers.
CCS(=O)(=O)c1ccc(CC(=O)Nc2cc(Cl)c(C3(c4nc5ccc(F)cc5o4)CC3)c(Cl)c2)cn1 :: -1
CCS(=O)(=O)c1ccc(CC(=O)Nc2cc(Cl)c(C3(c4noc(-c5ccc(C)s5)n4)CC3)c(Cl)c2)cc1 :: -1
CCS(=O)(=O)c1ccc(CC(=O)Nc2cc(Cl)c(C3(c4noc(-c5ccc(F)c(F)c5)n4)CC3)c(Cl)c2)nc1 :: -1
CCS(=O)(=O)c1ccc(CC(=O)Nc2cc(Cl)c(C3(c4noc(-c5ccc(F)cc5Cl)n4)CC3)c(Cl)c2)nc1 :: 1
CCS(=O)(=O)c1ccc(CC(=O)Nc2cc(F)c(C3(c4noc(-c5ccc(F)cc5)n4)CC3)c(Cl)c2)cc1 :: 1

**Q:** Dear reviewer, please state whether CCS(=O)(=O)c1ccc(CC(=O)Nc2cc(Cl)c(C3(c4noc(-c5ccc(C#N)cc5)n4)CC3)c(Cl)c2)nc1 has IC50 strictly beneath 20 nM.
**A:** -1

---

Readings of pIC50 for the listed molecules
Biological target: full length human RORγt (Homo sapiens, UniProt P51449)
Construct: full length human RORγt together in COS-7 cells
Sequence (P51449 1-497 isoform P51449-2): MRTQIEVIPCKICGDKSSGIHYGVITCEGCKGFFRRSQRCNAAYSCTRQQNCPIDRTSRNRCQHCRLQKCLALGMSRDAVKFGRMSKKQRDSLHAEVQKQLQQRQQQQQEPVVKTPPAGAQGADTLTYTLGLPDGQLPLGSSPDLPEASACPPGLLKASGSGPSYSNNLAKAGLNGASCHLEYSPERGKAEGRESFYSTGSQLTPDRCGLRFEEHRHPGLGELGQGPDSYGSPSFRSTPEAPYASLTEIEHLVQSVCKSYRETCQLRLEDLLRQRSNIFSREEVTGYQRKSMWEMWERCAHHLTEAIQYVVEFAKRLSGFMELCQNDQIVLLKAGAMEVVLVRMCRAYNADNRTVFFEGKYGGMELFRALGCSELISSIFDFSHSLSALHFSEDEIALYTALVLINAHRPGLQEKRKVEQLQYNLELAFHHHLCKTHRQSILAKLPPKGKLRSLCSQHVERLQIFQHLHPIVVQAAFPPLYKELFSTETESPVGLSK
Test: 5×RORE based luciferase assay
Settings: COS-7 cells transfected with 5×RORE-Luc and hRORγt, 18-20 h treatment
Schema: pIC50 number; meaning minus log10 of the concentration expressed in molar units.

Field: example entries. Status: answers known.
CCS(=O)(=O)c1ccc(CC(=O)Nc2cc(Cl)c(C3(c4noc(-c5ccc(F)cc5F)n4)CC3)c(Cl)c2)cn1 :: 8.19
CCS(=N)(=O)c1ccc(CC(=O)Nc2cc(Cl)c(C3(c4noc(-c5ccc(F)cc5)n4)CC3)c(Cl)c2)cc1 (stereo not drawn) :: 8.04
CCS(=O)(=O)c1ccc(CC(=O)Nc2cc(Cl)c(C3(c4nnc(-c5ccc(F)cc5)o4)CC3)c(Cl)c2)cc1 :: 7.91
CCS(=O)(=O)c1ccc(CC(=O)Nc2cc(F)c(C3(c4noc(-c5ccc(F)cc5)n4)CC3)c(Cl)c2)cc1 :: 7.71

**Q:** Please report the recorded pIC50 for CCS(=O)(=O)c1ccc(CC(=O)Nc2cc(F)c(C3(c4noc(-c5ccc(C(F)(F)F)cc5)n4)CC3)c(Cl)c2)cc1 .
**A:** 7.90

**Q:** Note, next up: CCS(=O)(=O)c1ccc(CC(=O)Nc2cc(Cl)c(C3(c4noc(-c5ccc(C#N)cc5)n4)CC3)c(Cl)c2)cc1
**A:** 8.89

**Q:** For CCS(=O)(=O)c1ccc(CC(=O)Nc2cc(Cl)c(C3(c4noc(-c5cccs5)n4)CC3)c(Cl)c2)cc1 then?
**A:** 9.05

---

Tested on: secreted IL-17 in peripheral blood mononuclear cells (PBMCs)
Test: Human IL-17 inhibition assay
Format: cell-based
Conditions: PBMC, anti-CD3/anti-CD28, 72 h, read-out: IL17 IC50
Reported Metric: IC50

# annotated cases, reported IC50 shown
CCS(=O)(=O)c1ccc(CC(=O)Nc2cc(Cl)c(C3(c4noc(-c5ccc(F)cc5F)n4)CC3)c(Cl)c2)cn1 :: 0.0224 µM
CCS(=O)(=O)c1ccc(CC(=O)Nc2cc(Cl)c(C3(c4noc(-c5ccc(C)cc5)n4)CC3)c(Cl)c2)cc1 :: 0.015 µM
CCS(=O)(=O)c1ccc(CC(=O)Nc2cc(F)c(C3(c4noc(-c5ccc(C#N)cc5)n4)CC3)c(Cl)c2)cc1 :: 0.018 µM

**Q:** Find the recorded IC50 belonging to O=C(Cc1ccc(S(=O)(=O)NC2CC2)cc1)Nc1cc(Cl)c(C2(c3noc(-c4ccc(C(F)(F)F)cc4)n3)CC2)c(Cl)c1 and report it.
**A:** 0.063 µM

**Q:** Next entry: CCS(=O)(=O)c1ccc(CC(=O)Nc2cc(Cl)c(C3(c4noc(-c5cccnc5)n4)CC3)c(Cl)c2)cc1
**A:** 0.027 µM

**Q:** Next compound: CCS(=O)(=O)c1ccc(CC(=O)Nc2cc(F)c(C3(c4noc(-c5ccc(C(F)(F)F)cc5)n4)CC3)c(Cl)c2)cc1
**A:** 0.05 µM

**Q:** Moving on to the next compound: CCS(=O)(=O)c1ccc(CC(=O)Nc2cc(Cl)c(C3(c4noc(-c5cccs5)n4)CC3)c(Cl)c2)cc1
**A:** 0.042 µM

---

In this section, each of the molecules is paired with its reported IC50.
Tested on: secreted IL-17 in peripheral blood mononuclear cells (PBMCs)
Test: Human IL-17 inhibition assay
Format: cell-based
Conditions: PBMC, anti-CD3/anti-CD28, 72 h, read-out: IL17 IC50
Kindly provide the numeric value in nM only, without the unit symbol.

Use these answered entries as a reference point.
CCS(=O)(=O)c1ccc(CC(=O)Nc2cc(F)c(C3(c4noc(-c5ccc(F)cc5)n4)CC3)c(F)c2)cc1 [Example 28] :: 41.6
CCS(=O)(=O)c1ccc(CC(=O)Nc2cc(Cl)c(C3(c4nc5ccc(F)cc5o4)CC3)c(Cl)c2)nc1 [Example 58] :: 23.3

Now let's try a different one.
**Q:** State its IC50 on secreted IL-17 in peripheral blood mononuclear cells (PBMCs): CCS(=O)(=O)c1ccc(CC(=O)Nc2cc(Cl)c(C3(c4noc(-c5ccc(F)cc5)n4)CC3)c(Cl)c2)nc1 [Example 41]
**A:** 15.5
